assay: Pharmacokinetic studies in rats; format: in vivo, Sprague–Dawley rats; details: male, Sprague-Dawley, whole blood, iv; Rat, i.v. 5 mg·kg^−1, mean (SD); read-out: Vss
MEASUREMENT_KIND: Vd (L/kg)
One number for each entry, in L/kg.

Need Vd, item CC[C@H]1OC(=O)[C@H](C)[C@@H](O[C@H]2C[C@@](C)(OC)[C@@H](O)[C@H](C)O2)[C@H](C)[C@@H](O[C@@H]2O[C@H](C)C[C@H](N(C)C)[C@H]2O)[C@](C)(O)C[C@@H](C)CN(CCCNc2ccnc3cc(Cl)ccc23)[C@H](C)[C@@H](O)[C@]1(C)O [Compound 1]
3.8
